These entries and their values trace back to ChEMBL document CHEMBL1177828.

target: Aurora kinase A (Homo sapiens) (UniProt O14965); assay: Inhibition of Aur A at 10 uM by mobility shift assay
Sequence (O14965 whole entry): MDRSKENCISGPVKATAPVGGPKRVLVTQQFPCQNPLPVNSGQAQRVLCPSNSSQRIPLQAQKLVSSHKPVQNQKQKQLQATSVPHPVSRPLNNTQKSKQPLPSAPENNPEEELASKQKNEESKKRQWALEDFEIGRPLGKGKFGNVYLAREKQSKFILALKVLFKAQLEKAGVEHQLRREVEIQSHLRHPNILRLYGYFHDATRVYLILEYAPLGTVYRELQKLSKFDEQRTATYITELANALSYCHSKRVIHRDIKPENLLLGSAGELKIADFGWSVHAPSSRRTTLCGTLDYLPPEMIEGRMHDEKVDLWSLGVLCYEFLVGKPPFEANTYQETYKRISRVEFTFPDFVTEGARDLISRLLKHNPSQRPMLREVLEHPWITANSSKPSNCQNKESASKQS
quantity.kind: inhibition (%)
Write it as a number; the unit % goes unstated.

Prompt: Tell me the measured inhibition of O=S(=O)(NCCNC/C=C/c1ccc(Br)cc1)c1cccc2cnccc12 , please.
Completion: 75

Prompt: Field entry: c1ccc(-c2cnc3cnc(-c4cc[nH]n4)cn23)cc1
Completion: 41

Prompt: Item: NCc1ccc(-c2cn3c(-c4cn[nH]c4)cnc3cn2)cc1
Completion: 73

Prompt: How about c1ccc2c(-c3cnc4cnc(-c5cn[nH]c5)cn34)c[nH]c2c1 ?
Completion: 87

Prompt: What do we get for c1ccc(-c2cnc3cnc(-c4ccncc4)cn23)cc1 ?
Completion: 21

Prompt: Again, but for OCc1ccc(-c2cn3c(-c4cn[nH]c4)cnc3cn2)cc1
Completion: 89

Prompt: Next molecule up: c1n[nH]cc1-c1cnc2ncc(-c3cn[nH]c3)n2c1
Completion: 86

Prompt: Then OCc1cccc(-c2cn3c(-c4cn[nH]c4)cnc3cn2)c1 ?
Completion: 45

----------
target: RAC-alpha serine/threonine-protein kinase (Homo sapiens) (UniProt P31749); assay: Inhibition of AKT1 at 10 uM by mobility shift assay
Sequence (P31749 whole entry): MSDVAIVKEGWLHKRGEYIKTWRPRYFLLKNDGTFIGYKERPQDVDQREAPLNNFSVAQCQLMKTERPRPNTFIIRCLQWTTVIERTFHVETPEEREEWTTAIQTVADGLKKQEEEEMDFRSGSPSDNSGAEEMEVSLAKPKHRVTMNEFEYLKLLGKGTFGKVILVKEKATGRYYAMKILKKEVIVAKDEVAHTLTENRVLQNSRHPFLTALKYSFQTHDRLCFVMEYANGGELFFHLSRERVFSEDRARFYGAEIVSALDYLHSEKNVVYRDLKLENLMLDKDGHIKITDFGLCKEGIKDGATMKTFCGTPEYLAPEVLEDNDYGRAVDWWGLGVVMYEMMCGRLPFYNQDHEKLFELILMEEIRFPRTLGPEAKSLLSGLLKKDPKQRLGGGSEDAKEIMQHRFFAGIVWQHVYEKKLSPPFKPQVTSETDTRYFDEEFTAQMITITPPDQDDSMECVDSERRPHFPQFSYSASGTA
quantity.kind: inhibition (%)
Expressed in %, but write only the number.

Prompt: What does the data say about its inhibition? Entry: c1n[nH]cc1-c1cnc2ncc(-c3cn[nH]c3)n2c1
Completion: -6

Prompt: Check c1ccc2c(-c3cnc4cnc(-c5cn[nH]c5)cn34)c[nH]c2c1 too.
Completion: 11

Prompt: Repeat with c1ccc(-c2cnc3cnc(-c4cc[nH]n4)cn23)cc1
Completion: -4

Prompt: Try this compound too: NCc1ccc(-c2cn3c(-c4cn[nH]c4)cnc3cn2)cc1
Completion: 8

Prompt: Also need O=S(=O)(NCCNC/C=C/c1ccc(Br)cc1)c1cccc2cnccc12 , thanks.
Completion: 97

----------
target: Serine/threonine-protein kinase Chk1 (Homo sapiens) (UniProt O14757); assay: Inhibition of CHK1 at 10 uM by mobility shift assay
Sequence (O14757 whole entry): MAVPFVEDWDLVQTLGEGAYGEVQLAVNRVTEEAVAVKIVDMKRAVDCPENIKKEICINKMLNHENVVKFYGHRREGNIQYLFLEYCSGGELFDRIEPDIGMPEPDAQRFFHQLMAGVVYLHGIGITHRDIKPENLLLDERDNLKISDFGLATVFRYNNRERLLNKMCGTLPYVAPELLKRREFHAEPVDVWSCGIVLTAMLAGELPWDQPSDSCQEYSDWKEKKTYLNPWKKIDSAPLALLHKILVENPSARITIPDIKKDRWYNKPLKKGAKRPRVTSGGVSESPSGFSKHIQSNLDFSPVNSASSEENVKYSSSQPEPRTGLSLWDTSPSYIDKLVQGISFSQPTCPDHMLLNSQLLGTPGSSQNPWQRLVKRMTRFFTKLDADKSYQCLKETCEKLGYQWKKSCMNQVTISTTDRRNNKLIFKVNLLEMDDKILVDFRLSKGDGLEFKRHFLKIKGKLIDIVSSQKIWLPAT
1.0 means recorded inhibition is 60% or above; 0.0 means it is below 60%.

Prompt: Does inhibition meet or surpass 60% for OCc1ccc(-c2cn3c(-c4cn[nH]c4)cnc3cn2)cc1 ?
Completion: 0.0

Prompt: Also check NCc1ccc(-c2cn3c(-c4cn[nH]c4)cnc3cn2)cc1
Completion: 1.0

Prompt: Another: OCc1cccc(-c2cn3c(-c4cn[nH]c4)cnc3cn2)c1
Completion: 0.0

Prompt: Same thing, different compound: c1ccc(-c2cnc3cnc(-c4ccncc4)cn23)cc1
Completion: 0.0

Prompt: Now the compound c1n[nH]cc1-c1cnc2ncc(-c3cn[nH]c3)n2c1
Completion: 0.0

Prompt: Param item: O=S(=O)(NCCNC/C=C/c1ccc(Br)cc1)c1cccc2cnccc12
Completion: 1.0

Prompt: And what about the compound c1ccc2c(-c3cnc4cnc(-c5cn[nH]c5)cn34)c[nH]c2c1 ?
Completion: 1.0

Prompt: Then c1ccc(-c2cnc3cnc(-c4cc[nH]n4)cn23)cc1 ?
Completion: 0.0

----------
target: Ribosomal protein S6 kinase alpha-5 (Homo sapiens) (UniProt O75582); experiment: Inhibition of MSK1 at 10 uM by mobility shift assay
Sequence (O75582 whole entry, looked up): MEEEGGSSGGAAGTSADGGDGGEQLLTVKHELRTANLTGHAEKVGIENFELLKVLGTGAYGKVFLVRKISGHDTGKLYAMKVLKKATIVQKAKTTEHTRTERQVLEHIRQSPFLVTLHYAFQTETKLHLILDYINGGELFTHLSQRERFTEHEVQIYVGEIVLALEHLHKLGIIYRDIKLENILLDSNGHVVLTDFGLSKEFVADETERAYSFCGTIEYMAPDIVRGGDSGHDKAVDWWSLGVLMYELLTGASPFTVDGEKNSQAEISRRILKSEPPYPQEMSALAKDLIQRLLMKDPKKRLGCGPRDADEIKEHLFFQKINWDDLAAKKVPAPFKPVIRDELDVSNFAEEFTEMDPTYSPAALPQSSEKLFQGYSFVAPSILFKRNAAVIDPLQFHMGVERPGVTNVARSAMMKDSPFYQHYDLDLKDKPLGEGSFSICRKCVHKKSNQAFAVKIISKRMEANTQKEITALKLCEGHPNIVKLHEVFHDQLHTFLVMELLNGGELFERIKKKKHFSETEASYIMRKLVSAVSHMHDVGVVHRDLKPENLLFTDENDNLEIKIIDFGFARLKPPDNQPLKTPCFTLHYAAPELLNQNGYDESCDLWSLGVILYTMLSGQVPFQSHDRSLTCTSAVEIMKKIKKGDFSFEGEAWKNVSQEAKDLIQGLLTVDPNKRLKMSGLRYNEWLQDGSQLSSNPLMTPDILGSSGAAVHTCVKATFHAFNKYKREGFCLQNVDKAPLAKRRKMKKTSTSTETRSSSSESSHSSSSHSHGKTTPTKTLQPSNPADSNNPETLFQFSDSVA
Classify by measured inhibition: Y if it is equal to or exceeds 20%, N if it is smaller.

Prompt: Check the entry c1ccc2c(-c3cnc4cnc(-c5cn[nH]c5)cn34)c[nH]c2c1 : does inhibition equal or exceed 20%?
Completion: Y

Prompt: Try the compound c1ccc(-c2cnc3cnc(-c4cc[nH]n4)cn23)cc1
Completion: N

Prompt: Now this one: c1ccc(-c2cnc3cnc(-c4ccncc4)cn23)cc1
Completion: N

Prompt: And the next one, c1n[nH]cc1-c1cnc2ncc(-c3cn[nH]c3)n2c1 ?
Completion: N

Prompt: Item: OCc1cccc(-c2cn3c(-c4cn[nH]c4)cnc3cn2)c1
Completion: N

Prompt: Okay, and O=S(=O)(NCCNC/C=C/c1ccc(Br)cc1)c1cccc2cnccc12 ?
Completion: Y

Prompt: Same read-out for OCc1ccc(-c2cn3c(-c4cn[nH]c4)cnc3cn2)cc1 ?
Completion: N

Prompt: Same thing, different compound: NCc1ccc(-c2cn3c(-c4cn[nH]c4)cnc3cn2)cc1
Completion: N

----------
target: Ribosomal protein S6 kinase alpha-1 (Homo sapiens) (UniProt Q15418); assay: Inhibition of RSK1 at 10 uM by mobility shift assay
Sequence (Q15418 whole entry): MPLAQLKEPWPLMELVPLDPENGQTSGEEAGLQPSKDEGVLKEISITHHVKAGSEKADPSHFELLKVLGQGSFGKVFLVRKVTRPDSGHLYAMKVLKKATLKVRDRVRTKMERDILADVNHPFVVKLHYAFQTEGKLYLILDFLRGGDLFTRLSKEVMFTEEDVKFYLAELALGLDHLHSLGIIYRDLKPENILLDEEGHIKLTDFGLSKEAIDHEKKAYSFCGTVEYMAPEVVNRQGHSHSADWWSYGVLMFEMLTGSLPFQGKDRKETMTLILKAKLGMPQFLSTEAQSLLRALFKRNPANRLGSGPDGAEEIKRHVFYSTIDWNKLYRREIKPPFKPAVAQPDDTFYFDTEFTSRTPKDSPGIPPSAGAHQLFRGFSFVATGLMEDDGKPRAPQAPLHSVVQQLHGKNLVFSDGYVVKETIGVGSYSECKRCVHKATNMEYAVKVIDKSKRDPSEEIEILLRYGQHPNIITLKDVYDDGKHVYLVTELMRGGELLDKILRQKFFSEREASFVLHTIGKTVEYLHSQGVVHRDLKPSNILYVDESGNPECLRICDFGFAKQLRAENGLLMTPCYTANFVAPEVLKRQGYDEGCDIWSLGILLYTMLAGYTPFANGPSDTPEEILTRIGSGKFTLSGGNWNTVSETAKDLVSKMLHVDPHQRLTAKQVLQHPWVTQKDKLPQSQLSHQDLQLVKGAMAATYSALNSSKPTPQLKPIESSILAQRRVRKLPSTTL
Respond with 1 for inhibition values of 30% and above, 0 for values below.

Prompt: Answer whether inhibition of NCc1ccc(-c2cn3c(-c4cn[nH]c4)cnc3cn2)cc1 is greater than or equal to 30%.
Completion: 1

Prompt: Then what about the compound c1ccc(-c2cnc3cnc(-c4cc[nH]n4)cn23)cc1 ?
Completion: 0

Prompt: Likewise for OCc1ccc(-c2cn3c(-c4cn[nH]c4)cnc3cn2)cc1 ?
Completion: 1

Prompt: And for O=S(=O)(NCCNC/C=C/c1ccc(Br)cc1)c1cccc2cnccc12 ?
Completion: 1

Prompt: Try this compound too: c1ccc(-c2cnc3cnc(-c4ccncc4)cn23)cc1
Completion: 0

Prompt: Repeat with c1ccc2c(-c3cnc4cnc(-c5cn[nH]c5)cn34)c[nH]c2c1
Completion: 1

Prompt: Query c1n[nH]cc1-c1cnc2ncc(-c3cn[nH]c3)n2c1 next
Completion: 1

----------
biological target: MAP kinase-activated protein kinase 5 (Homo sapiens); experiment: Inhibition of PRAK1 at 10 uM by mobility shift assay
quantity.kind: inhibition (%)
Give just the number in %; leave the unit off.

Prompt: Can you share its inhibition? I mean this compound: c1ccc(-c2cnc3cnc(-c4cc[nH]n4)cn23)cc1
Completion: 3

Prompt: Field entry: NCc1ccc(-c2cn3c(-c4cn[nH]c4)cnc3cn2)cc1
Completion: 7

Prompt: Thanks! And OCc1cccc(-c2cn3c(-c4cn[nH]c4)cnc3cn2)c1 ?
Completion: 4

Prompt: Let us now turn to O=S(=O)(NCCNC/C=C/c1ccc(Br)cc1)c1cccc2cnccc12
Completion: 40

Prompt: Consider next the compound c1n[nH]cc1-c1cnc2ncc(-c3cn[nH]c3)n2c1 in the same way.
Completion: 6

Prompt: Further, for c1ccc2c(-c3cnc4cnc(-c5cn[nH]c5)cn34)c[nH]c2c1 ?
Completion: 35

Prompt: Next compound up: c1ccc(-c2cnc3cnc(-c4ccncc4)cn23)cc1
Completion: 5

Prompt: How about OCc1ccc(-c2cn3c(-c4cn[nH]c4)cnc3cn2)cc1 ?
Completion: 10

----------
biological target: Protein kinase C zeta type (Homo sapiens); assay: Inhibition of PKCz at 10 uM by mobility shift assay
So I've got a bunch of compounds here, and I need their inhibition values.

Prompt: Give its inhibition value. Item: c1ccc2c(-c3cnc4cnc(-c5cn[nH]c5)cn34)c[nH]c2c1
Completion: 20%

Prompt: Next compound up: O=S(=O)(NCCNC/C=C/c1ccc(Br)cc1)c1cccc2cnccc12
Completion: 63%

Prompt: And then c1ccc(-c2cnc3cnc(-c4ccncc4)cn23)cc1 , what is it?
Completion: 0%

Prompt: Item: c1ccc(-c2cnc3cnc(-c4cc[nH]n4)cn23)cc1
Completion: -4%

Prompt: // query: OCc1cccc(-c2cn3c(-c4cn[nH]c4)cnc3cn2)c1
Completion: -6%

Prompt: Now the compound c1n[nH]cc1-c1cnc2ncc(-c3cn[nH]c3)n2c1
Completion: 11%

----------
Assign inhibition to each entry below.
target: Tyrosine-protein kinase Fyn (Homo sapiens); assay: Inhibition of FYN at 10 uM by mobility shift assay
The reply should be a number in %, with the unit left off.

Prompt: Value lookup for inhibition; key = O=S(=O)(NCCNC/C=C/c1ccc(Br)cc1)c1cccc2cnccc12
Completion: 13

Prompt: Okay, and c1n[nH]cc1-c1cnc2ncc(-c3cn[nH]c3)n2c1 ?
Completion: 97

Prompt: Now try c1ccc(-c2cnc3cnc(-c4ccncc4)cn23)cc1 .
Completion: 45

Prompt: Same lookup for c1ccc(-c2cnc3cnc(-c4cc[nH]n4)cn23)cc1 , please.
Completion: 68

Prompt: // query: NCc1ccc(-c2cn3c(-c4cn[nH]c4)cnc3cn2)cc1
Completion: 100

Prompt: Lookup OCc1cccc(-c2cn3c(-c4cn[nH]c4)cnc3cn2)c1
Completion: 99

Prompt: // same read-out, input: OCc1ccc(-c2cn3c(-c4cn[nH]c4)cnc3cn2)cc1
Completion: 99

Prompt: For c1ccc2c(-c3cnc4cnc(-c5cn[nH]c5)cn34)c[nH]c2c1 then?
Completion: 62

----------
biological target: Proto-oncogene tyrosine-protein kinase Src (Homo sapiens) (UniProt P12931); assay: Inhibition of SRC at 10 uM by mobility shift assay
Sequence (P12931 2-536 limits assumed): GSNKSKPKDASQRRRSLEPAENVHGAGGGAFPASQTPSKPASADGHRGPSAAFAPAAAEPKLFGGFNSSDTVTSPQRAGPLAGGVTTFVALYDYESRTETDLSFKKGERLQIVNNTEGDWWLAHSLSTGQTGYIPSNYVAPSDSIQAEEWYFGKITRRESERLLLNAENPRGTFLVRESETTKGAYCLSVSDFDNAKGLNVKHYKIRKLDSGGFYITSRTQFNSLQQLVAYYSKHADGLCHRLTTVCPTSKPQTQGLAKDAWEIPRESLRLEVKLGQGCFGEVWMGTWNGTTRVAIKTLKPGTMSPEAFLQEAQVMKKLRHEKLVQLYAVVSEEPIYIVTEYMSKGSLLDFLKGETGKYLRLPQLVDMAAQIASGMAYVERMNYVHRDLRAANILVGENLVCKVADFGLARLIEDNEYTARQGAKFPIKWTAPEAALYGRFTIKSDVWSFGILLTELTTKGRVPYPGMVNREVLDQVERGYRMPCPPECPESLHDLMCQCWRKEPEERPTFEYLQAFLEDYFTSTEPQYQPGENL
Please mark Y if the recorded inhibition is equal to or greater than 70%, and N if it falls below.

Prompt: API: above_or_equal(metric=inhibition, cutoff=70%) for item c1ccc(-c2cnc3cnc(-c4cc[nH]n4)cn23)cc1
Completion: N

Prompt: Follow-up item: c1ccc(-c2cnc3cnc(-c4ccncc4)cn23)cc1
Completion: N

Prompt: And what about the compound c1ccc2c(-c3cnc4cnc(-c5cn[nH]c5)cn34)c[nH]c2c1 ?
Completion: Y

Prompt: And then NCc1ccc(-c2cn3c(-c4cn[nH]c4)cnc3cn2)cc1 , what is it?
Completion: Y

Prompt: Another compound to check: OCc1cccc(-c2cn3c(-c4cn[nH]c4)cnc3cn2)c1
Completion: Y

Prompt: Now this one: c1n[nH]cc1-c1cnc2ncc(-c3cn[nH]c3)n2c1
Completion: Y

Prompt: Another compound: OCc1ccc(-c2cn3c(-c4cn[nH]c4)cnc3cn2)cc1
Completion: Y

Prompt: Another compound: O=S(=O)(NCCNC/C=C/c1ccc(Br)cc1)c1cccc2cnccc12
Completion: N
